Target Or System: AKT (Homo sapiens, UniProt P31749)
Sequence (P31749 whole entry): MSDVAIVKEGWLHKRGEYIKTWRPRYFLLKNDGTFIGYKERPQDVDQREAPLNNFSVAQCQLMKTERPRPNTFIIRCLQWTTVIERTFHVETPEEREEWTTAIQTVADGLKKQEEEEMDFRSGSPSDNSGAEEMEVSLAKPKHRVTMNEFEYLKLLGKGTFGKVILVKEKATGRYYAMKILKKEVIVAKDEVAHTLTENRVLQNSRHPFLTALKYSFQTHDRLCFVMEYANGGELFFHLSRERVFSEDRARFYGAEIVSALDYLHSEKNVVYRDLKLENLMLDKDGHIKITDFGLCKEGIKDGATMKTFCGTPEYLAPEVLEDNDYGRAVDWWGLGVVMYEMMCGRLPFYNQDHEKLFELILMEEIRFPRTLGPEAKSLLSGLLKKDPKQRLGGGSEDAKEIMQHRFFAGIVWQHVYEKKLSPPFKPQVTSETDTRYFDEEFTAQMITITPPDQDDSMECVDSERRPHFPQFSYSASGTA
Protocol Summary: ELISA-based AKT kinase assay
Format: biochemical
Design: made in house; host or cells: Sf9 insect cells
Test Conditions: AKT expressed in Sf9 cells, substrate peptide 300 nM, ATP 5 μM, 30 min at room temperature
pIC50: −log10 of the molar value.
Assay Metric: pIC50

compound="COc1ccc(O)c(C(=O)c2ccc(C(=O)N[C@@H]3CCCNC[C@H]3NC(=O)c3ccncc3)cc2)c1.Cl [Example 2-5, hydrochloride]" value_reported=7.82
compound="CSc1ccc(O)c(C(=O)c2ccc(C(=O)N[C@@H]3CCCNC[C@H]3NC(=O)c3ccncc3)cc2)c1.Cl [Example 2-2, hydrochloride]" value_reported=7.96

I. Cc1ccc(O)c(C(=O)c2ccc(C(=O)N[C@@H]3CCCNC[C@H]3NC(=O)c3ccncc3)cc2)c1F.Cl [Example 2-1, hydrochloride]
II. Cc1ccc(O)c(C(=O)c2ccc(C(=O)N[C@@H]3CCCNC[C@H]3NC(=O)c3ccncc3)cc2)c1.Cl [Example 2-6, hydrochloride]
III. COc1ccc(O)c(C(=O)c2ccc(C(=O)N[C@@H]3CCCNC[C@H]3NC(=O)c3ccncc3)cc2)c1OC.Cl [Example 2-4, hydrochloride]
Q: Write the entries in order, lowest recorded pIC50 first. Write the labels in rank order as requested.
Result: III, II, I

###

Form field: melting point (one value per entry).

Examples with answers:
molecule=CN(C)c1ccc(O)c(C(=O)c2ccc(C(=O)N[C@@H]3CCCNC[C@H]3NC(=O)c3ccncc3)cc2)c1.Cl value_reported="230 to 245 °C"
molecule="Cc1ccc(O)c(C(=O)c2ccc(C(=O)N[C@@H]3CCCNC[C@H]3NC(=O)c3ccncc3)cc2)c1.Cl [Example 2-6]" value_reported="215 to 219 °C"
molecule="COc1ccc(O)c(C(=O)c2ccc(C(=O)N[C@@H]3CCCNC[C@H]3NC(=O)c3ccncc3)cc2)c1OC.Cl [Example 2-4]" value_reported="185 to 193 °C"

# next molecule below
Q: Fill in: melting point of CC1(C)CCCNC1c1ccc(O)c(C(=O)c2ccc(C(=O)N[C@@H]3CCCNC[C@H]3NC(=O)c3ccncc3)cc2)c1F.Cl (stereo partly shown) is ___
Result: 265 °C

###

Assay Metric: melting point

Examples with answers:
compound="Cl.O=C(N[C@@H]1CCCNC[C@H]1NC(=O)c1ccncc1)c1ccc(C(=O)c2cc(C3CCCCN3)ccc2O)cc1 (stereo partly shown)" assay_metric="melting point" value_reported="195 to 210 °C"
compound=Cc1cccc(C(=O)c2ccc(C(=O)N[C@@H]3CCCNC[C@H]3NC(=O)c3ccncc3)cc2)c1.Cl assay_metric="melting point" value_reported="190 to 196 °C"
compound=COc1ccc(O)c(C(=O)c2ccc(C(=O)N[C@@H]3CCCNC[C@H]3NC(=O)c3ccc(O)cc3)cc2)c1F.Cl assay_metric="melting point" value_reported="190 to 196 °C"

# next compound below
Q: Fill in: melting point of `Cl.O=C(N[C@@H]1CCCNC[C@H]1NC(=O)c1ccncc1)c1ccc(C(=O)c2cc(O)ccc2O)cc1` is ___
Result: 108 to 114 °C

###

Target Or System: AKT (Homo sapiens, UniProt P31749)
Protocol Summary: cellular AKT activity assay (GSK-3 Ser21/Ser9 phosphorylation in LNCaP cells, immunoblot)
Assay type: cell-based
Design: endogenous in cells; host or cells: LNCaP prostate cancer cells
Test Conditions: 1 h treatment, inhibitors 6 μM to 187 nM, read-out: values found for effect on AKT activity in living cells (level of GSK-3-Ser21/Ser9 phosphorylation)
Excerpt: Additionally to Example 3 the acticity of compounds according to the invention was studied on a cellular AKT activity assay as follows: Prostate cancer cell line LNCaP was passaged in RPMI 1640 with 10% fetal calf serum, 50 units/ml penicillin, and 50 units/ml streptomycin. LNCaP cells were characterized by a constitutive activation of AKT. […] The level of GSK-3-Ser21/Ser9 phosphorylation was thereby determined using polyclonal anti-P-GSK-3-Ser-21/9 antibody (rabbit; New England Biolabs).
pIC50: −log10 of the molar value.
Assay Metric: pIC50

Examples with answers:
compound="Cc1ccc(O)c(C(=O)c2ccc(C(=O)N[C@@H]3CCCNC[C@H]3NC(=O)c3ccncc3)cc2)c1.Cl [Example 2-6, hydrochloride]" assay_metric=pIC50 value_reported=6.00
compound="COc1ccc(O)c(C(=O)c2ccc(C(=O)N[C@@H]3CCCNC[C@H]3NC(=O)c3ccncc3)cc2)c1.Cl [Example 2-5, hydrochloride]" assay_metric=pIC50 value_reported=5.70

P. Cc1ccc(O)c(C(=O)c2ccc(C(=O)N[C@@H]3CCCNC[C@H]3NC(=O)c3ccncc3)cc2)c1F.Cl [Example 2-1, hydrochloride]
Q. CSc1ccc(O)c(C(=O)c2ccc(C(=O)N[C@@H]3CCCNC[C@H]3NC(=O)c3ccncc3)cc2)c1.Cl [Example 2-2, hydrochloride]
Q: Endpoint returns the identifier whose pIC50 is numerically larger, either P or Q . Reply briefly: the label of your chosen item.
Result: Q
(Q: 5.82, P: 5.52)

###

Assay Metric: melting point

Examples with answers:
cpd_smiles=CN(C)c1ccc(O)c(C(=O)c2ccc(C(=O)N[C@@H]3CCCNC[C@H]3NC(=O)c3ccc(O)cc3)cc2)c1.Cl value_reported="203 to 206 °C"
cpd_smiles=Cl.NCc1ccc(O)c(C(=O)c2ccc(C(=O)N[C@@H]3CCCNC[C@H]3NC(=O)c3ccncc3)cc2)c1 value_reported="215 to 218 °C"
cpd_smiles=CC(C)Oc1ccc(O)c(C(=O)c2ccc(C(=O)N[C@@H]3CCCNC[C@H]3NC(=O)c3ccncc3)cc2)c1.Cl value_reported="243 to 249 °C"

# next molecule below
Q: Fill in: melting point of `COc1ccc(O)c(C(=O)c2ccc(C(=O)N[C@@H]3CCCNC[C@H]3NC(=O)c3ccncc3)cc2)c1F.Cl` is ___
Result: 200 to 222 °C

###

Form field: melting point (one value per entry).

Examples with answers:
cpd_smiles=Cc1ccc2cc(O)c(C(=O)c3ccc(C(=O)N[C@@H]4CCCNC[C@H]4NC(=O)c4ccncc4)cc3)c(F)c2n1.Cl value_reported="255 to 260 °C"
cpd_smiles=CSc1ccc(O)c(C(=O)c2ccc(C(=O)N[C@@H]3CCCNC[C@H]3NC(=O)c3ccncc3)cc2)c1.Cl value_reported="183 to 185 °C"

Q: Fill in: melting point of `CC1(C)CCCN(c2ccc(O)c(C(=O)c3ccc(C(=O)N[C@@H]4CCCNC[C@H]4NC(=O)c4ccncc4)cc3)c2)C1.Cl` is ___
Result: 194 to 198 °C

Q: Fill in: melting point of `Cl.O=C(N[C@@H]1CCCNC[C@H]1NC(=O)c1ccncc1)c1ccc(C(=O)c2c(O)ccc3c2OCCO3)cc1` is ___
Result: 230 to 240 °C

Q: Fill in: melting point of `Cc1cc(C(=O)c2ccc(C(=O)N[C@@H]3CCCNC[C@H]3NC(=O)c3ccncc3)cc2)c(O)cn1.Cl` is ___
Result: 203 to 208 °C

Q: Fill in: melting point of `Cc1cc(C(=O)N[C@@H]2CNCCC[C@H]2NC(=O)c2ccc(C(=O)c3cc(N(C)C)ccc3O)cc2)cc(C)c1O.Cl` is ___
Result: 217 to 219 °C

Q: Fill in: melting point of `COc1ccc(O)c(C(=O)c2ccc(C(=O)N[C@@H]3CCCNC[C@H]3NC(=O)c3ccncn3)cc2)c1F.Cl` is ___
Result: 256 to 265 °C

###

Form field: melting point (one value per entry).

Examples with answers:
cpd_smiles=COc1ccc(O)c(C(=O)c2ccc(C(=O)N[C@@H]3CCCNC[C@H]3NC(=O)c3ccncc3)cc2)c1.Cl value_reported="230 to 240 °C"
cpd_smiles=COc1ccc(O)c(C(=O)c2ccc(C(=O)N[C@@H]3CCCNC[C@H]3NC(=O)c3ccnc(N)c3)cc2)c1F.Cl value_reported="223 to 241 °C"
cpd_smiles=CC1(C)CCN(c2ccc(O)c(C(=O)c3ccc(C(=O)N[C@@H]4CCCNC[C@H]4NC(=O)c4ccncc4)cc3)c2)CC1.Cl value_reported="229 to 234 °C"
cpd_smiles=COc1ccc(O)c(C(=O)c2ccc(C(=O)N[C@@H]3CCCNC[C@H]3NC(=O)c3cc(C)c(O)c(C)c3)cc2)c1F.Cl value_reported="180 to 183 °C"
cpd_smiles=Cl.O=C(N[C@@H]1CCCNC[C@H]1NC(=O)c1ccncc1)c1ccc(C(=O)c2cc(N3CCCCC3)ccc2O)cc1 value_reported="218 to 224 °C"
cpd_smiles=CC(C)Nc1ccc(O)c(C(=O)c2ccc(C(=O)N[C@@H]3CCCNC[C@H]3NC(=O)c3ccncc3)cc2)c1.Cl value_reported="227 to 230 °C"
cpd_smiles=Cc1ccc(O)c(C(=O)c2ccc(C(=O)N[C@@H]3CCCNC[C@H]3NC(=O)c3ccncc3)cc2)c1F.Cl value_reported="181 to 184 °C"
cpd_smiles=CC(C)(C)c1ccc2cc(O)c(C(=O)c3ccc(C(=O)N[C@@H]4CCCNC[C@H]4NC(=O)c4ccncc4)cc3)c(F)c2n1.Cl value_reported="215 °C"
cpd_smiles=Cl.O=C(N[C@@H]1CCCNC[C@H]1NC(=O)c1ccncc1)c1ccc(C(=O)c2c(O)cc3cccnc3c2F)cc1 value_reported="247 to 251 °C"

# next compound below
Q: Fill in: melting point of `Cl.O=C(N[C@@H]1CCCNC[C@H]1NC(=O)c1ccncc1)c1ccc(C(=O)c2c(O)ccc3ncccc23)cc1` is ___
Result: 215 to 220 °C
